The origin of these recorded values is PubChem BioAssay (NCI).

System: HCT-116 colon
Assay: NCI-60 one-dose screen, 48 h (100 = growth as untreated, 0 = no growth, -100 = all killed)
Conditions: 10 µM unless noted
This is part of a sample that, as a whole, favours compounds with a hit. Of some 83,000 tested, about 20% had one in any assay.
Class key for growth values: low bin (below 20%), mid bin (20% to below 60%), high bin (60% or more)

// known answers, use as guide
- COc1ccc(/C=N\Nc2nc(SCCC(C)C)nc(-c3ccc(OC)cc3)c2C#N)cc1: mid bin
- CCOC(=O)c1cc2c(n1Cc1cc(OC)c(OC)c(OC)c1)-c1nc(N)sc1CCC2: mid bin
- COc1ccc(/C=C/C(=O)c2cc3c(N)c(C(=O)Nc4cccc5ccccc45)sc3nc2C)cc1: high bin

q: Determine which band this compound sits in: CCOC(=O)C1=C(N)Oc2c(sc3c(F)cccc23)C1c1ccc(O)cc1 (stereo not given)
a: mid bin

q: Assign a category based on measured growth for CCN1C(=S)N(c2ccccc2)C2NC(=S)N(/N=C/C=C/c3ccccc3OC)C21 (stereo not given) and give only the class name.
a: low bin

q: Where would `COc1cccc(CNc2ccc3ncnc(Nc4ccc(F)c(Cl)c4)c3c2)c1` land among the classes by reported growth?
a: high bin

q: Hi, small favor: classify `O=C1C(Cl)=C(Nc2ccc(S(=O)(=O)N3CCOCC3)cc2)C(=O)c2ccccc21` by its growth when you get a moment.
a: low bin

q: Hello team, could you let me know which band the following compound falls into: `CSc1nc2ncc([N+](=O)[O-])c(=O)n2[nH]1`
a: high bin

q: Sort into band: N#CSCC1CC(O)(c2ccccc2)CC(c2ccc(F)cc2)O1 (stereo not given)
a: low bin

q: Please report the category associated with `C=CCOC(=O)Nc1cccn([C@H](Cc2ccccc2)C(=O)NCCC(C)C)c1=O` , nothing else.
a: high bin
